Each recorded value in this set is attributed to paper PMC9585582.

# System: microtubules (taxane binding site) in living HeLa cells
# TEST_SUMMARY: Competition binding assay with PB-GABA-Taxol in living HeLa cells
# TEST_PARAMETERS: read-out: cellular Ki; PB-GABA-Taxol 1.5 μM, verapamil 100 μM, 37 °C, 4% FBS, 3 h, 60K cells/well
Overview of recorded Ki for various compounds
Include the unit after the number when you answer.

Before answering, review these 3 worked examples.
# COMPOUND, Ki
data = [
    ("C/C(=C\\c1csc(C)n1)[C@@H]1C[C@@H]2O[C@]2(C)CCC[C@H](C)[C@H](O)[C@@H](C)C(=O)C(C)(C)[C@@H](O)CC(=O)N1 [ixabepilone]", "10 nM"),
    ("CC(=O)O[C@H]1C(=O)[C@@]2(C)[C@H]([C@H](OC(=O)c3ccccc3)[C@]3(O)C[C@H](O)C(C)=C1C3(C)C)[C@]1(OC(C)=O)CO[C@@H]1C[C@@H]2O [baccatin III]", "17000 nM"),
    ("CC(=O)O[C@H]1C(=O)[C@@]2(C)[C@H]([C@H](OC(=O)c3ccccc3)[C@]3(O)C[C@H](OC(=O)[C@H](O)[C@@H](NC(=O)c4ccccc4)c4ccccc4)C(C)=C1C3(C)C)[C@]1(OC(C)=O)CO[C@@H]1C[C@@H]2O [paclitaxel]", "22 nM"),
]

Could you share what Ki was measured for CC(=O)O[C@@]12CO[C@@H]1C[C@H](O)[C@@]1(C)C(=O)[C@H](O)C3=C(C)[C@@H](OC(=O)[C@H](O)[C@@H](NC(=O)OC(C)(C)C)c4ccccc4)C[C@@](O)([C@@H](OC(=O)c4ccccc4)[C@H]21)C3(C)C [docetaxel] , tested on microtubules (taxane binding site) in living HeLa cells?
16 nM

Could you share what Ki was measured for CO[C@H]1C(=O)[C@]2(C)[C@@H](OC)C[C@H]3OC[C@@]3(OC(C)=O)[C@H]2[C@H](OC(=O)c2ccccc2)[C@]2(O)C[C@H](OC(=O)[C@H](O)[C@@H](NC(=O)OC(C)(C)C)c3ccccc3)C(C)=C1C2(C)C [cabazitaxel] , tested on microtubules (taxane binding site) in living HeLa cells?
6 nM

====

# TEST_SUMMARY: Cytotoxicity toward HeLa cells after 48 h by flow cytometry
# Format: cell-based
# TEST_PARAMETERS: human
EXPERIMENTAL_ENDPOINT: IC50 at 48 h (nM)
Write it as a number; the unit nM goes unstated.

Which measured IC50 at 48 h value corresponds to COc1cc2c(c(OC)c1OC)-c1ccc(OC)c(=O)cc1[C@@H](NC(C)=O)CC2 ?
20
